- Assay Method Text: Blood and brain concentrations (LC-MS) in mice treated intraperitoneally for a week with graduated doses
- Format: in vivo, CD1 mice
- Condition Parameters: CD1, mouse, brain, intraperitoneal, 0.6125 mg/Kg; heading: Brain conc 1; one week, lowest of 3 dosages (C=0.6125 mg/Kg)
Readout Name: concentration at 1 week (ng/g)
API: value field is a number in ng/g; no unit string.

Request: Entry under review: CO[C@H]1C[C@@H]2CC[C@@H](C)[C@@](O)(O2)C(=O)C(=O)N2CCCC[C@H]2C(=O)O[C@H]([C@H](C)C[C@@H]2CC[C@@H](OCCO)[C@H](OC)C2)CC(=O)[C@H](C)/C=C(\C)[C@@H](O)[C@@H](OC)C(=O)[C@H](C)C[C@H](C)/C=C/C=C/C=C/1C [everolimus] . Reported concentration at 1 week?
Response: 46

Taken from patent US20160324770A1.
